- PROTOCOL: Plasma protein binding, equilibrium dialysis
- Assay type: in vitro ADME
- DETAILS: mouse, equilibrium dialysis, 5 μM, read-out: Plasma Protein Binding (fu) Mouse
This section presents molecules with their documented fraction unbound at 6 h, 5 μM values.
ENDPOINT LABEL: fraction unbound at 6 h, 5 μM

chemical_string=O=C(c1ccc(OCc2ccc(OC(F)(F)F)cc2)cc1)N1CCN(c2ccc(C(F)(F)F)cn2)CC1 recorded_value=0.012
chemical_string=Cc1cc(Cl)cc2sc(O[C@@H]3CCN(C(=O)CCCS(=O)(=O)c4cccc(Br)c4)C[C@@H]3F)nc12 recorded_value=0.004
chemical_string=Cc1cc(Cl)cc2sc(O[C@@H]3CCN(C(=O)CCCS(=O)(=O)c4cccc(Br)c4)C[C@H]3F)nc12 recorded_value=0.004
chemical_string=Cc1cc(Cl)cc2sc(O[C@H]3CCN(C(=O)CCCS(=O)(=O)c4cccc(Br)c4)C[C@@H]3F)nc12 recorded_value=0.008
chemical_string=Cc1cc(Cl)cc2sc(O[C@H]3CCN(C(=O)CCCS(=O)(=O)c4cccc(Br)c4)C[C@H]3F)nc12 recorded_value=0.0002
